Biological target: Ubiquitin-activating enzyme e1, putative (Leishmania donovani (strain BPK282A1)) (UniProt E9BSI1)
Sequence (E9BSI1 as listed by the source): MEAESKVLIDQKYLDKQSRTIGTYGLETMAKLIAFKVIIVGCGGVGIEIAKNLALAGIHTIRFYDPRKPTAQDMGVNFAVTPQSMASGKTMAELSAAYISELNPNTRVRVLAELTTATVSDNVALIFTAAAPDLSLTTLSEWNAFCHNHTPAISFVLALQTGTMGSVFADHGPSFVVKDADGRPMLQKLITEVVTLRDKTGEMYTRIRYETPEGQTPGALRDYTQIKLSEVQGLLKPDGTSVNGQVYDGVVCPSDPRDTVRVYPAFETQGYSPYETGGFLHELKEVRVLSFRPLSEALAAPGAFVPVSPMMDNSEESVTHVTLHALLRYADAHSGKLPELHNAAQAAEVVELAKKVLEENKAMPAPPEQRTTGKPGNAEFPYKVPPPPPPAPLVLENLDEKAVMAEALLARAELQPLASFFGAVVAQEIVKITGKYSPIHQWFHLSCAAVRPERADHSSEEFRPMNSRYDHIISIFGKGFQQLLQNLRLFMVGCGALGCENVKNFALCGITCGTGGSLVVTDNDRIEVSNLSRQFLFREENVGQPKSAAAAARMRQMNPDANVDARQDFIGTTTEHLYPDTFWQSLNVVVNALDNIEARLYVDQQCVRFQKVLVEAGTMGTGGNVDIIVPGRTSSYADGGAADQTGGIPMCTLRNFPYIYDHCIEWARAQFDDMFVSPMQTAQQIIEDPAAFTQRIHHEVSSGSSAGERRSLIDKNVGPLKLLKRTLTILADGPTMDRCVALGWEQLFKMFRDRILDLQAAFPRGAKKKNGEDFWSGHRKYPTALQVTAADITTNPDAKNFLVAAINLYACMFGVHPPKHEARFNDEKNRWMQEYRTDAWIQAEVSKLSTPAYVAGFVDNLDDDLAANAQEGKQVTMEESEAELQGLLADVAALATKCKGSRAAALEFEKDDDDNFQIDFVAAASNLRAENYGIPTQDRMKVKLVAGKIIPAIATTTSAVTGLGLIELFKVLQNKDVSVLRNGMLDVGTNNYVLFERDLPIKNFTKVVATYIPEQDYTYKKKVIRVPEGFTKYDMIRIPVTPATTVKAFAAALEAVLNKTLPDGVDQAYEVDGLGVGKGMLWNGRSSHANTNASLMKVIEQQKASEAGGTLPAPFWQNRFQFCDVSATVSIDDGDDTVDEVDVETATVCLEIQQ
Experiment: Leishmania donovani Ubiquitin Activating Enzyme (LdE1)
Format: functional
Parameters: scale not given: direction of the effect not stated beside the values
Conditions: 30 µM
Measured potencies and affinities stand elsewhere.
Exercise: for every item that follows, state its recorded Percent Effect.
Use % as the unit, but write only the number.

## Input What value of Percent Effect has been reported for the following compound? "COCC(=O)N1C[C@@H]2OCCN(Cc3c(C)noc3C)[C@@H]2C1"
## Output 1.3

## Input Also, "c1cncc(CN2CC[C@H]3O[C@@H](COCC4CC4)CC[C@H]32)c1" please.
## Output -2.67

## Input Now this one: c1cnc(N2CCC3(CCN(CC4CCOC4)C3)CC2)nc1 (configuration not stated)
## Output 6.49

## Input Same thing, different compound: "Cc1cccc(C(=O)N2C[C@@H]3OCCN(C(C)C)[C@@H]3C2)n1"
## Output 0

## Input Another: COc1ccc(-c2n[nH]cc2C2SCC(=O)Nc3[nH]ncc32)cc1 (configuration not stated)
## Output 0

## Input How about this compound: CCOCC(O)CN1CCN(C(=O)Cc2ccc(C)nc2)CC1 (configuration not stated)
## Output 18.4

## Input Follow-up item: CCc1nnc(C(C)N2CCCN(C(=O)Oc3ccccc3)CC2)o1 (configuration not stated)
## Output 15.8

## Input Also "CCc1nc(CN2CCN(C(=O)Cc3c(C)noc3C)CC2)cs1" ?
## Output 12.8

## Input Same read-out for "CN1CCC2(CC1)C(=O)N(CC1CC1)c1ccccc12" ?
## Output 9.09

## Input Another compound: O=C1CSC(c2ccsc2)c2sccc2N1 (configuration not stated)
## Output -57.3

## Input # repeat for "CC[C@H]1NCCC[C@]12CCC(=O)N2Cc1ccncc1"
## Output 11.7

## Input And the next one, O=C1NC2(CCNCC2)CC1c1cccnc1 (configuration not stated) ?
## Output 10.7
